The origin of these recorded values is patent US12258327B2.

# Target entity: EGFR del19/T790M/C797S (Homo sapiens, UniProt P00533, C797S/DEL746-750/T790M)
# Sequence (P00533 with tags, fused parts or gaps DEL746-750/T790M/C797S): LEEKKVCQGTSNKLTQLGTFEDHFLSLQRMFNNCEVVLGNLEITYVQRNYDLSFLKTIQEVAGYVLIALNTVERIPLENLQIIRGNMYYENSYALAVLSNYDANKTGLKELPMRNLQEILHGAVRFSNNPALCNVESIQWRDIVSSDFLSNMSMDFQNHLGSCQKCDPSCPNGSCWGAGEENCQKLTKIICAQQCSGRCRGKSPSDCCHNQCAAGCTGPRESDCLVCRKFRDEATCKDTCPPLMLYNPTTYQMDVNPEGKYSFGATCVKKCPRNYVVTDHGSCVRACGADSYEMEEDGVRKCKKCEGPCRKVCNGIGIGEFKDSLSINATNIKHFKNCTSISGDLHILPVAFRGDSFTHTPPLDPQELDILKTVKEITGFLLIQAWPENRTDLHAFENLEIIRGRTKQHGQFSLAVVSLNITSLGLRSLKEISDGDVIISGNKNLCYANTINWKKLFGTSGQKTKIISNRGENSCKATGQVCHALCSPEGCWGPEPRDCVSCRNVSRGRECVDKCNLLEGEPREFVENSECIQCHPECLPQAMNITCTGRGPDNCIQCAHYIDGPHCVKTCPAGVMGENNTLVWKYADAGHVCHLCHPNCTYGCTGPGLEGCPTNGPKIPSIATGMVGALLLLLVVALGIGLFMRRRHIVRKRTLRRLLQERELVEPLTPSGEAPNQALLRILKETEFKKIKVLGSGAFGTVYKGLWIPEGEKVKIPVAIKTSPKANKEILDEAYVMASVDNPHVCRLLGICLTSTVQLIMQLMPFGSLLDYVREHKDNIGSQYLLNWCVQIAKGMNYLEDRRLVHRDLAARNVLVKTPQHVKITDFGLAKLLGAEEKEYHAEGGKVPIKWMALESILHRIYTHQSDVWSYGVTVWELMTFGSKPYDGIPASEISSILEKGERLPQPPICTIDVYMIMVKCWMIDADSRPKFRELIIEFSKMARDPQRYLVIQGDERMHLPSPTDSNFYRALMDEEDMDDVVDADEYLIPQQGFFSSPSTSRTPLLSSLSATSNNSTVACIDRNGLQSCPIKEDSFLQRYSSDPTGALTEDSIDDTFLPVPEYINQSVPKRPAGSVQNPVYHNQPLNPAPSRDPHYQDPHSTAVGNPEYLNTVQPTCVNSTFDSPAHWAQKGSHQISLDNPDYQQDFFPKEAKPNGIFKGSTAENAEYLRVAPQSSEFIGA
# Assay: Biochemical EGFR kinase assay (Lance Ultra TR-FRET), triple mutant del19/T790M/C797S
# Condition summary: Km ATP; read-out: IC50 del19/T790M/C797S, Km ATP
# Protocol: Biochemical EGFR kinase assays were conducted using Lance Ultra time-resolved fluorescence resonance energy transfer (TR-FRET) technology from Perkin-Elmer. […] Each kinase reactions were incubated at room temperature for 1 hour and then stopped by the addition of 4 μL of stop solution (10 mM EDTA). […] After 60 minutes incubation at room temperature the LANCE signal was measured on an EnVision Multilabel Reader (Perkin-Elmer). […]
Readout kind: pIC50
Worth noting: pIC50 values are minus log10 of concentrations stated in mol/L.

Report pIC50 for Cc1nn(CC(F)(F)F)cc1-c1nccc(Nc2cc(N[C@H]3CC[C@@](C)(O)CC3)c(-c3ccn(CC(F)F)n3)cn2)n1 please.
8.80

Others:
Report pIC50 for Cc1nn(CC(F)(F)F)cc1-c1nccc(Nc2cc(N[C@H]3CC[C@@H](CCO)CC3)c(-c3ccn(CC(F)F)n3)cn2)n1 please.
9.10

Report pIC50 for Cn1nc(-c2cnc(Nc3ccnc(-c4cnn(S(=O)(=O)C5CC5)c4)c3)nc2N[C@H]2CC[C@@H](F)CC2)cc1C(F)(F)F please.
9.05
